test system: HepG2.2.15 cells; assay: Cytotoxicity in HepG2.2.15 cells (CPE); type: cell-based, human; conditions: 3 + 3 days
With a cut-off of 20 µM, any TC50 (50% cytotoxic concentration), HBV strictly below it is called label 1; any TC50 (50% cytotoxic concentration), HBV meeting it or above is called label 0.

Examples from the recorded data:
# smiles.repr, target.entity, assigned.label
records = [
    ("O=[N+]([O-])c1ccc(CNc2ccc3ncsc3c2)cc1", "HepG2.2.15 cells", "label 1"),
    ("Clc1ccc(CNc2ccc3ncsc3c2)s1", "HepG2.2.15 cells", "label 1"),
    ("c1ncc(CNc2ccc3ncsc3c2)cn1", "HepG2.2.15 cells", "label 0"),
    ("Cc1ccc(CNc2ccc3ncsc3c2)o1", "HepG2.2.15 cells", "label 0"),
    ("COc1cc(CNc2ccc3ncoc3c2)cc(Br)c1O", "HepG2.2.15 cells", "label 0"),
]

Item Clc1ccc(CNc2ccc3ncoc3c2)s1 : TC50 (50% cytotoxic concentration), HBV beneath 20 µM, strictly? label 1

Item C(=C\c1ccccc1)/CNc1ccc2cc[nH]c2c1 : TC50 (50% cytotoxic concentration), HBV beneath 20 µM, strictly? label 1

Item Cc1ccc(CNc2ccc3cc[nH]c3c2)s1 : TC50 (50% cytotoxic concentration), HBV beneath 20 µM, strictly? label 0

----------
result.type: melting point

Solved cases (2 shown):
# smiles.repr, result.type, obs.value
data = [
    ("C(=C\\c1ccccc1)/CNc1ccc2ncsc2c1", "melting point", "99 to 101 °C"),
    ("c1csc(CNc2ccc3ncsc3c2)c1", "melting point", "148 to 150 °C"),
]

Record summary for C(=C\c1ccccc1)/CNc1ccc2cc[nH]c2c1 : reported melting point = 130 to 132 °C

Record summary for O=[N+]([O-])c1cccc(CNc2ccc3ncsc3c2)c1 : reported melting point = 126 to 128 °C

Record summary for Clc1ccc(CNc2ccc3ncsc3c2)s1 : reported melting point = 104 to 106 °C

Record summary for COc1cc(CNc2ccc3ncoc3c2)cc(Br)c1O : reported melting point = 129 to 131 °C

Record summary for Clc1ccc(CNc2ccc3ncoc3c2)s1 : reported melting point = 100 to 102 °C

Record summary for O=[N+]([O-])c1ccc(CNc2ccc3ncoc3c2)cc1 : reported melting point = 154 to 156 °C

Record summary for c1ccc2c(CNc3ccc4ncsc4c3)c3ccccc3cc2c1 : reported melting point = 174 to 176 °C

Record summary for c1ncc(CNc2ccc3ncsc3c2)cn1 : reported melting point = 127 to 129 °C

----------
test system: Influenza A/hanfang/359/95; experiment: microbe, parasite or virus in culture; assay type: cell-based; settings: Influenza A virus, MDCK
result.type: IC50 (µM)
Please state the figure in µM; there is no need to write the unit.

Solved cases (2 shown):
# molecule, target.entity, unit.abbreviation, IC50
records = [
    ("c1ncc(CNc2ccc3ncsc3c2)cn1", "Influenza A/hanfang/359/95", "µM", 214),
    ("NC(=O)c1ncn([C@@H]2O[C@H](CO)[C@@H](O)[C@H]2O)n1 [RBV, ribavirin, reference compound]", "Influenza A/hanfang/359/95", "µM", 8.76),
]

Continue with the next molecule.
Record summary for O=[N+]([O-])c1cccc(CNc2ccc3ncsc3c2)c1 : reported IC50 = 12.5

----------
tested on: Influenza A/hanfang/359/95; test: microbe, parasite or virus in culture; assay type: cell-based; details: Influenza A virus, MDCK
pIC50: −log10 of the molar value.
Note to self: values exactly at 5 are 1 (yes). So pIC50 at or above 5 is 1 (yes), below is 0 (no).

Can c1csc(CNc2ccc3ncsc3c2)c1 [3h] be said to have pIC50 at or above 5? 1 (yes)

Can COc1cc(CNc2ccc3ncoc3c2)cc(Br)c1O [2a] be said to have pIC50 at or above 5? 0 (no)

Can O=[N+]([O-])c1ccc(CNc2ccc3ncoc3c2)cc1 [2b, Benzooxazol-6-yl-(4-nitrobenzyl)-amine] be said to have pIC50 at or above 5? 0 (no)

Can O=[N+]([O-])c1ccc(CNc2ccc3ncsc3c2)cc1 [3d, Benzothiazol-6-yl-(4-nitrobenzyl)-amine] be said to have pIC50 at or above 5? 1 (yes)

----------
result.type: melting point

Solved cases (2 shown):
# compound, melting point
data = [
    ("Cc1ccc(CNc2ccc3ncsc3c2)o1 [3g]", "52 to 54 °C"),
    ("c1ncc(CNc2ccc3ncoc3c2)cn1 [2f]", "175 to 177 °C"),
]

Record summary for c1csc(CNc2ccc3ncoc3c2)c1 [2d] : reported melting point = 62 to 64 °C

Record summary for Clc1ccc(CNc2ccc3cc[nH]c3c2)cc1 [1a, (4-Chlorobenzyl)-(1H-indol-6-yl)-amine] : reported melting point = 135 to 137 °C

Record summary for Cc1ccc(CNc2ccc3nc[nH]c3c2)o1 [4b] : reported melting point = 75 to 77 °C

Record summary for COc1cccc(CNc2ccc3ncsc3c2)c1O [3b] : reported melting point = 206 to 208 °C

Record summary for c1cnc2c(CNc3ccc4ncoc4c3)cccc2c1 [2g] : reported melting point = 98 to 100 °C

Record summary for C(=C\c1ccccc1)/CNc1ccc2ncoc2c1 [2c] : reported melting point = 100 to 103 °C

Record summary for Cc1ccc(CNc2ccc3cc[nH]c3c2)s1 [1d] : reported melting point = 89 to 91 °C

Record summary for COc1cc(CNc2ccc3ncsc3c2)cc(Br)c1O [3a] : reported melting point = 193 to 195 °C

Record summary for COc1ccccc1/C=C/CNc1ccc2ncsc2c1 [3f] : reported melting point = 107 to 109 °C

Record summary for Cc1ccc(CNc2ccc3cc[nH]c3c2)o1 [1c] : reported melting point = 100 to 102 °C

----------
tested on: MDCK cells; test: Cytotoxicity in MDCK cells (CPE); type: cell-based, Canine; conditions: 48 h, Reed & Muench
Listing: TC50 (50% cytotoxic concentration), Influenza A/hanfang/359/95 of selected molecules
Field note: include the unit after the figure.

# molecule, obs.value
records = [
    ("c1ncc(CNc2ccc3ncsc3c2)cn1 [3j]", "826.44 µM"),
    ("CCOC(=O)C1=C[C@@H](OC(CC)CC)[C@H](NC(C)=O)[C@@H](N)C1 [Oseltamivir, oseltamivir, reference compound]", "4030.42 µM"),
    ("Cc1ccc(CNc2ccc3ncsc3c2)o1 [3g]", "94.60 µM"),
    ("O=[N+]([O-])c1ccc(CNc2ccc3ncoc3c2)cc1 [2b, Benzooxazol-6-yl-(4-nitrobenzyl)-amine]", "288.23 µM"),
    ("Clc1ccc(CNc2ccc3ncoc3c2)s1 [2e]", "87.30 µM"),
    ("Cc1ccc(CNc2ccc3nc[nH]c3c2)o1 [4b]", "440.02 µM"),
    ("c1ncc(CNc2ccc3ncoc3c2)cn1 [2f]", "425.44 µM"),
]

Continue with the next molecule.
Record summary for Cc1ccc(CNc2ccc3cc[nH]c3c2)o1 [1c] : reported TC50 (50% cytotoxic concentration), Influenza A/hanfang/359/95 = 4.52 µM

----------
Listing: TC50 (50% cytotoxic concentration), Influenza A/hanfang/359/95 of selected compounds
test system: MDCK cells; experiment: Cytotoxicity in MDCK cells (CPE); type: cell-based, Canine; settings: 48 h, Reed & Muench
Please state the figure in µM; there is no need to write the unit.

Record summary for C(=C\c1ccccc1)/CNc1ccc2cc[nH]c2c1 : reported TC50 (50% cytotoxic concentration), Influenza A/hanfang/359/95 = 2.86

Record summary for O=[N+]([O-])c1cccc(CNc2ccc3ncsc3c2)c1 : reported TC50 (50% cytotoxic concentration), Influenza A/hanfang/359/95 = 45.01

Record summary for C(=C\c1ccccc1)/CNc1ccc2ncsc2c1 : reported TC50 (50% cytotoxic concentration), Influenza A/hanfang/359/95 = 24.10

Record summary for COc1cc(CNc2ccc3ncoc3c2)cc(Br)c1O : reported TC50 (50% cytotoxic concentration), Influenza A/hanfang/359/95 = 64.04

----------
Listing: IC50 of selected compounds
test system: Influenza A/hanfang/359/95; assay: microbe, parasite or virus in culture; assay type: cell-based; details: Influenza A virus, MDCK
Please state the figure in µM; there is no need to write the unit.

# compound, obs.value
measured = [
    ("COc1cccc(CNc2ccc3ncsc3c2)c1O [3b]", 10),
]

Record summary for Cc1ccc(CNc2ccc3ncsc3c2)o1 [3g] : reported IC50 = 26.2

Record summary for C(=C\c1ccccc1)/CNc1ccc2ncoc2c1 [2c] : reported IC50 = 11.6

Record summary for Clc1ccc(CNc2ccc3ncoc3c2)s1 [2e] : reported IC50 = 11

Record summary for Cc1ccc(CNc2ccc3nc[nH]c3c2)o1 [4b] : reported IC50 = 21.4
